Quick list: IC50 per entry.
- Test system: Murine leukemia virus (MuLV)
- assay_protocol: MuLV UV-XC plaque assay in SC-1 cells
- Assay type: cell-based
- conditions_used: SC1, Table II, racemic series, read-out: MuLV in vitro antiviral activity (IC50)
readout: IC50 (µg/mL)

Nc1nc2c(ncn2C2C=CC(OCP(=O)(O)O)C2)c(=O)[nH]1 (stereo not shown) [drawing 15] : 5.1
Nc1ncnc2c1ncn2C1C=CC(OCP(=O)(O)O)C1 (stereo not shown) [drawing 24] : 0.84

###

- Tested on: herpes simplex virus Type 2 (HSV-2) [G strain]
- assay_protocol: HSV-2 plaque reduction assay in vero cells
- Type: cell-based
- conditions_used: Human alphaherpesvirus 2, Table II, racemic series, 48 hour incubation, read-out: HSV-2 in vitro antiviral activity (IC50)
readout: IC50

Nc1nc2c(ncn2C2C=CC(OCP(=O)(O)O)C2)c(=O)[nH]1 (stereo not shown) [drawing 15] : > 50 µg/mL
Nc1nc2c(ncn2C2CC(OCP(=O)(O)O)C(O)C2O)c(=O)[nH]1 (stereo not shown) : > 100 µg/mL
Cc1cn(C2C=CC(OCP(=O)(O)O)C2)c(=O)[nH]c1=O (stereo not shown) : > 134 µg/mL
Nc1ncnc2c1ncn2C1CC(OCP(=O)(O)O)C(O)C1O (stereo not shown) : > 100 µg/mL
Nc1ncnc2c1ncn2C1C=CC(OCP(=O)(O)O)C1 (stereo not shown) [drawing 24] : > 82 µg/mL
Nc1nc2c(ncn2C2CC(OCP(=O)(O)O)C(O)C2F)c(=O)[nH]1 (stereo not shown) : 22 µg/mL
Nc1ncnc2c1ncn2C1CC(OCP(=O)(O)O)C(O)C1F (stereo not shown) [drawing 27] : > 100 µg/mL
